TGT: dopamine transporter/uptake site (3H-DA uptake, striatal synaptosomes) (Rattus norvegicus, UniProt P23977)
Construct: Corpi striati from male Wistar rats (150-200 g) are homogenised; from tissue; host or cells: rat corpus striatum, P2 synaptosomal pellet
Sequence (P23977 whole entry): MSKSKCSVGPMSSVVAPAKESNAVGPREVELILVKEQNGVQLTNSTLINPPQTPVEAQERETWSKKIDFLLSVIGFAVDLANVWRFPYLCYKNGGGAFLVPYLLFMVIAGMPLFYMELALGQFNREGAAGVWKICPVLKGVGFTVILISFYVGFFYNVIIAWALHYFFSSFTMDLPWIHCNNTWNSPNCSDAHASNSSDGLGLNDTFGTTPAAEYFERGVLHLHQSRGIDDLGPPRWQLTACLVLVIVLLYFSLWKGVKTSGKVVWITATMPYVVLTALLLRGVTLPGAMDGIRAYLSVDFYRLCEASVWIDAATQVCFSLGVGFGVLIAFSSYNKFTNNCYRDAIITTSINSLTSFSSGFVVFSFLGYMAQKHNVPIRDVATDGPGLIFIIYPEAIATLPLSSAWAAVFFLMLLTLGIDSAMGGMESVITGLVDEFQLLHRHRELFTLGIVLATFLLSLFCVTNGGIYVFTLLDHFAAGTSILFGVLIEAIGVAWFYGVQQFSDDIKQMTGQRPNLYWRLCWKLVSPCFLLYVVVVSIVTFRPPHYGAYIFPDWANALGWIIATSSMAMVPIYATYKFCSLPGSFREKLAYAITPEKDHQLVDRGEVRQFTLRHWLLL
ASSAY_SUMMARY: In vitro inhibition of 3H-dopamine (3H-DA) uptake in striatal synaptosomes
Assay type: biochemical, male Wistar rats
RECORDED_CONDITIONS: DA-uptake IC50, Table 1, 3H-DA 1 nM, 25 min at 37° C.
ENDPOINT: IC50 (µM)
Give bare numbers, in µM.

Worked examples follow.
* CN1C2C=C(c3ccc(OC(F)(F)F)cc3)CC1CC2 (racemic) | 22
* CN1C2C=C(c3ccc([N+](=O)[O-])cc3)CC1CC2 (racemic) | 1.5

Switching to the query record.
### Prompt Sample CN1C2C=C(c3ccc(C#N)cc3)CC1CC2 (racemic) — what was its IC50?
### Response 18

###

What IC50 was measured for each of the following?
TGT: noradrenaline transporter/uptake site (3H-NA uptake, hippocampal synaptosomes) (Rattus norvegicus, UniProt Q9WTR4)
ASSAY_SUMMARY: In vitro inhibition of 3H-noradrenaline (3H-NA) uptake in hippocampal synaptosomes
Type: biochemical, male Wistar rats
RECORDED_CONDITIONS: read-out: NA-uptake IC50, Table 2, value ± spread
The reply must contain the numeric value and, after it, the unit.

• CN1C2C=C(c3ccc(OC(F)(F)F)cc3)CC1CC2 (racemic) = 12 µM

Next item in the queue.
### Prompt IC50 for FC(F)(F)Oc1ccc(C2=CC3CCC(C2)N3)cc1 (racemic) [(±)-3-(4-trifluoromethoxyphenyl)-8-azabicyclo[3.2.1]oct-2-ene (racemate)] ?
### Response 15.6 µM

###

TGT: serotonine transporter/uptake site (3H-5-HT uptake, cortical synaptosomes) (Rattus norvegicus, UniProt P31652)
Construct: Cerebral cortices from male Wistar rats (150-200 g) are homogenised; from tissue; host or cells: rat cerebral cortex, P2 synaptosomal pellet
Sequence (P31652 whole entry): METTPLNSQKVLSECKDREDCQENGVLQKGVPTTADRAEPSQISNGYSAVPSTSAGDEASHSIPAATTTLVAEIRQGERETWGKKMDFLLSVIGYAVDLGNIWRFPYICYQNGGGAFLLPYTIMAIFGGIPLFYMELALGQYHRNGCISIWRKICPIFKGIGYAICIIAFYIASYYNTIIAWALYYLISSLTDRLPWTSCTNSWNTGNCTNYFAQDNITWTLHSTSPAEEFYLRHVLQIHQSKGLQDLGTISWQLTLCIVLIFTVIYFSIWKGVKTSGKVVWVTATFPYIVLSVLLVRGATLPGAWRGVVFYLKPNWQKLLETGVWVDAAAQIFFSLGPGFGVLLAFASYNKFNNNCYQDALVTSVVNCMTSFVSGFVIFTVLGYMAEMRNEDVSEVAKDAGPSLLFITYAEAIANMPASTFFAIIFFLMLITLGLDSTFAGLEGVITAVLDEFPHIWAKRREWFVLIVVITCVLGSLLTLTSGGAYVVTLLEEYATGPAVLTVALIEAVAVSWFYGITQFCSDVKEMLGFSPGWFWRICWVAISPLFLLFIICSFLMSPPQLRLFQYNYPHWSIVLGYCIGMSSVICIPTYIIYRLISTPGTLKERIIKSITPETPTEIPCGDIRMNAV
ASSAY_SUMMARY: In vitro inhibition of 3H-5-hydroxytryptamine (3H-5-HT, serotonine) uptake in cortical synaptosomes
Type: biochemical, male Wistar rats
RECORDED_CONDITIONS: 5-HT-uptake IC50, Table 2; cortical synaptosomes, value ± spread
Kindly state IC50 for each of the entries shown.
One number for each entry, in nM.

- CN1C2C=C(c3ccc(OC(F)(F)F)cc3)CC1CC2 (racemic): 3.5
- FC(F)(F)Oc1ccc(C2=CC3CCC(C2)N3)cc1 (racemic) [(±)-3-(4-trifluoromethoxyphenyl)-8-azabicyclo[3.2.1]oct-2-ene (racemate)]: 4.8
- FC(F)(F)Oc1ccc(C2=CC3CCC(C2)N3)cc1 (single isomer, unassigned) [3-(4-trifluoromethoxyphenyl)-8-azabicyclo[3.2.1]oct-2-ene (enantiomer B*)]: 12

Then this molecule:
### Prompt Tell me the measured IC50 of FC(F)(F)Oc1ccc(C2=CC3CCC(C2)N3)cc1 (single isomer, unassigned) [3-(4-trifluoromethoxyphenyl)-8-azabicyclo[3.2.1]oct-2-ene (enantiomer A*)] , please.
### Response 22

###

Please respond with reported IC50 for every item in the list.
TGT: serotonine transporter/uptake site (3H-5-HT uptake, cortical synaptosomes) (Rattus norvegicus, UniProt P31652)
Construct: Cerebral cortices from male Wistar rats (150-200 g) are homogenised; from tissue; host or cells: rat cerebral cortex, P2 synaptosomal pellet
ASSAY_SUMMARY: In vitro inhibition of 3H-5-hydroxytryptamine (3H-5-HT, serotonine) uptake in cortical synaptosomes
Assay type: biochemical, male Wistar rats
RECORDED_CONDITIONS: 5-HT-uptake IC50, Table 1; cortical synaptosomes, 3H-5-HT 1 nM, 30 min at 37° C.
Numbers only, in nM.

Sample answers from the record:
- CN1C2C=C(c3ccc([N+](=O)[O-])cc3)CC1CC2 (racemic): 16
- CN1C2C=C(c3ccc(C#N)cc3)CC1CC2 (racemic): 47

# ---- query compound ----
### Prompt Quick one: IC50 for CN1C2C=C(c3ccc(OC(F)(F)F)cc3)CC1CC2 (racemic) ?
### Response 3.6

###

TGT: dopamine transporter/uptake site (3H-DA uptake, striatal synaptosomes) (Rattus norvegicus, UniProt P23977)
Construct: Corpi striati from male Wistar rats (150-200 g) are homogenised; from tissue; host or cells: rat corpus striatum, P2 synaptosomal pellet
ASSAY_SUMMARY: In vitro inhibition of 3H-dopamine (3H-DA) uptake in striatal synaptosomes
Format: biochemical, male Wistar rats
RECORDED_CONDITIONS: DA-uptake IC50, Table 2, value ± spread
Task for the reader: assign each of the following compounds its reported IC50.
Give bare numbers, in µM.

Please give IC50, item by item, for the list that follows.
1. FC(F)(F)Oc1ccc(C2=CC3CCC(C2)N3)cc1 (racemic) [(±)-3-(4-trifluoromethoxyphenyl)-8-azabicyclo[3.2.1]oct-2-ene (racemate)]
2. CN1C2C=C(c3ccc(OC(F)(F)F)cc3)CC1CC2 (racemic)

### Response
[18.7, 21.3]

###

TGT: noradrenaline transporter/uptake site (3H-NA uptake, hippocampal synaptosomes) (Rattus norvegicus)
ASSAY_SUMMARY: In vitro inhibition of 3H-noradrenaline (3H-NA) uptake in hippocampal synaptosomes
Format: biochemical, male Wistar rats
RECORDED_CONDITIONS: read-out: NA-uptake IC50, Table 1, 3H-NA 1 nM, 90 min at 37° C.
ENDPOINT: IC50 (µM)
Numbers only, in µM.

The following compounds have reported results that may help.
* CN1C2C=C(c3ccc([N+](=O)[O-])cc3)CC1CC2 (racemic) | 0.5
* CN1C2C=C(c3ccc(OC(F)(F)F)cc3)CC1CC2 (racemic) | 8

### Prompt Record request: IC50 value, item CN1C2C=C(c3ccc(C#N)cc3)CC1CC2 (racemic)
### Response 4.9

All figures here come from patent US6617459B2.
